system.name: 5-hydroxytryptamine receptor 2A (Homo sapiens)
Sequence (P28223 whole entry): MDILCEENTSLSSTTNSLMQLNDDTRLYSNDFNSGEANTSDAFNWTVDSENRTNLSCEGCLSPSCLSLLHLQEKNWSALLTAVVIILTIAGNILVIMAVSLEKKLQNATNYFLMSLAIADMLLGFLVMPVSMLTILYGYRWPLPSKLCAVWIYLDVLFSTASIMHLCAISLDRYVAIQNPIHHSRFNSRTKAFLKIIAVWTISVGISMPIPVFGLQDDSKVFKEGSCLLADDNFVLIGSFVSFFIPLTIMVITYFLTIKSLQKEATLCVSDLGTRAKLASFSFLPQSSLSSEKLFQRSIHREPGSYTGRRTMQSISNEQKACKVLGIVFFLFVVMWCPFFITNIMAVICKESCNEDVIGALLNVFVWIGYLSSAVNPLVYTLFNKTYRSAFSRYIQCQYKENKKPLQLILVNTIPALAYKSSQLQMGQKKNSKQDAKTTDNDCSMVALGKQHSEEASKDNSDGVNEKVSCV
procedure.details: Antagonist activity at 5HT2A receptor (unknown origin) by HTRF cAMP assay
Assay type: functional
pIC50: −log10 of the molar value.
Here, each record is paired with measured pIC50 data.

# chemical.string, pIC50
records = [
    ("COc1cccn2c(=O)n(CCCCN3CCN(c4cccc5sccc45)CC3)nc12", 7.07),
    ("O=c1n(CCCCN2CCN(c3cccc4scnc34)CC2)nc2c(F)cccn12", 7.11),
    ("N#Cc1cccn2c(=O)n(CCCCN3CCN(c4cccc5sccc45)CC3)nc12", 6.81),
    ("O=c1n(CCCCN2CCN(c3cccc4sccc34)CC2)nc2c(Br)cccn12", 6.88),
    ("O=c1n(CCCCN2CCN(c3cccc4sccc34)CC2)nc2c(F)cccn12", 7.45),
    ("O=c1n(CCCCN2CCN(c3cccc4sccc34)CC2)nc2ccc(Cl)cn12", 6.84),
    ("N#Cc1ccn2c(=O)n(CCCCN3CCN(c4cccc5sccc45)CC3)nc2c1", 6.14),
    ("N#Cc1cccc2nn(CCCCN3CCN(c4cccc5sccc45)CC3)c(=O)n12", 6.98),
    ("O=c1n(CCCCN2CCN(c3cccc4sccc34)CC2)nc2ccccn12", 7.47),
]

* * *

system.name: 5-hydroxytryptamine receptor 1A (Homo sapiens)
Sequence (P08908 whole entry): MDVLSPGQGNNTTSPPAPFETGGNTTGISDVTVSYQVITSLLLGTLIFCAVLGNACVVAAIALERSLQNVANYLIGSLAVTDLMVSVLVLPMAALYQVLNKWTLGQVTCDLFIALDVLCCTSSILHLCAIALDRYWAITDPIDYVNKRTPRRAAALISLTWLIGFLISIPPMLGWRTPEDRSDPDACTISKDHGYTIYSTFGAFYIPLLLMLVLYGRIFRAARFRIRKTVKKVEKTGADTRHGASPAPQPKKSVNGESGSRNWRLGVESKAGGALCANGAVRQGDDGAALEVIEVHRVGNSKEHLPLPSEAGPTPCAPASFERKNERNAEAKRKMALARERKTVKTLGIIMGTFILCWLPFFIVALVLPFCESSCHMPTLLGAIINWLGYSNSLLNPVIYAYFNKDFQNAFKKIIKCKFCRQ
procedure.details: Agonist activity at 5HT1A receptor (unknown origin) by calcium-dye based FLIPR assay
pEC50: −log10 of the molar value.
measure.name: pEC50

# chemical.string, value.comparator, measured
measured = [
    ("N#Cc1cccc2nn(CCCCN3CCN(c4cccc5sccc45)CC3)c(=O)n12", "=", 7.69),
    ("COc1cccn2c(=O)n(CCCCN3CCN(c4cccc5sccc45)CC3)nc12", "=", 8.66),
    ("O=c1n(CCCCN2CCN(c3cccc4sccc34)CC2)nc2c(F)cccn12", "=", 8.74),
    ("O=c1n(CCCCN2CCN(c3cccc4sc(F)cc34)CC2)nc2c(F)cccn12", "=", 8.82),
    ("O=c1n(CCCCN2CCN(c3cccc4sccc34)CC2)nc2c(Cl)cccn12", "=", 7.92),
    ("O=c1n(CCCCN2CCN(c3cccc4sccc34)CC2)nc2c(Br)cccn12", "=", 8.15),
    ("O=c1n(CCCCN2CCN(c3cccc4sccc34)CC2)nc2c(F)cc(F)cn12", "=", 8.92),
    ("O=c1n(CCCCN2CCN(c3cccc4scnc34)CC2)nc2c(F)cccn12", "=", 10.00),
    ("N#Cc1ccn2c(=O)n(CCCCN3CCN(c4cccc5sccc45)CC3)nc2c1", "=", 8.23),
    ("O=c1n(CCCCN2CCC(c3cc(F)cc4oncc34)CC2)nc2ccccn12", "<", 5.00),
]

Origin of the recorded values: ChEMBL document CHEMBL4619707
